Listing of entries alongside the reported IC50.
- System Under Test: NLRP3 inflammasome (Homo sapiens (Human), UniProt Q96P20)
- Sequence (Q96P20 whole entry): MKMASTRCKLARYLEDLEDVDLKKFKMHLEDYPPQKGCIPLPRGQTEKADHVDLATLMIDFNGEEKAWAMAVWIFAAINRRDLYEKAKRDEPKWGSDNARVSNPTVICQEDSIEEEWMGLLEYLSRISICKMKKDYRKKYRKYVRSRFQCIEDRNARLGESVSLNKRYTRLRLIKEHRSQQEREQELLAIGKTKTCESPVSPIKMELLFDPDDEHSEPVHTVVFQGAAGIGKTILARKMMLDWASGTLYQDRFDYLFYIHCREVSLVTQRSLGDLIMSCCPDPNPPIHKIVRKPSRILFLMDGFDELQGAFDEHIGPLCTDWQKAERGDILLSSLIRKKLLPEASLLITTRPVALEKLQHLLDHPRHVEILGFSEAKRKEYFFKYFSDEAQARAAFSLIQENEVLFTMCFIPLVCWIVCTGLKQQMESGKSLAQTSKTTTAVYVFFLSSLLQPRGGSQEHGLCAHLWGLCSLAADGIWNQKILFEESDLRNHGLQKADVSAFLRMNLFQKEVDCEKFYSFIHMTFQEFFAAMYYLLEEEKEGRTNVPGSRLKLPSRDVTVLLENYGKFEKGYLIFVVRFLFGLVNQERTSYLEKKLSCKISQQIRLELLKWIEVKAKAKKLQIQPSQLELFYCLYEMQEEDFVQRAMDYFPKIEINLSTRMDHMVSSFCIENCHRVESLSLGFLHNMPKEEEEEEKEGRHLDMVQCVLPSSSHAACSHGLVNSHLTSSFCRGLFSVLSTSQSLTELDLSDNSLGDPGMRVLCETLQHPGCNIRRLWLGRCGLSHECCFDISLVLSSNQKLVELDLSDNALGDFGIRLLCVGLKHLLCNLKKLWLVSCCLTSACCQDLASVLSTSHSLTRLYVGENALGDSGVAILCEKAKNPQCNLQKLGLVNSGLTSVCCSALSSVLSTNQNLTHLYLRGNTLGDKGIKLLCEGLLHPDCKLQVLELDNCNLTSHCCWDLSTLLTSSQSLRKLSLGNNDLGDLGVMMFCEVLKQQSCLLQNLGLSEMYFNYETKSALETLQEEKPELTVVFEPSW
- Assay Summary: Evaluation of NLRP3 inflammasome inhibitory activity (inhibition of IL-1β production in THP1-Null cells, LPS/Nigericin)

{"Molecule": "COC1COCCN(S(=O)(=O)NC(=O)c2coc(Nc3cc(C(F)(F)F)ccc3C(C)C)n2)C1 (racemic)", "System Under Test": "NLRP3 inflammasome (Homo sapiens (Human), UniProt Q96P20)", "IC50": "35 nM"}
{"Molecule": "O=C(NS(=O)(=O)N1CCC(O)C1)c1coc(Nc2c3c(c(Cl)c4c2CCC4)CCC3)n1 (racemic)", "System Under Test": "NLRP3 inflammasome (Homo sapiens (Human), UniProt Q96P20)", "IC50": "77 nM"}
{"Molecule": "COC1CN(S(=O)(=O)NC(=O)c2cnc(Nc3c4c(cc5c3CCC5)CCC4)o2)C1Cl (racemic)", "System Under Test": "NLRP3 inflammasome (Homo sapiens (Human), UniProt Q96P20)", "IC50": "4000 nM"}
{"Molecule": "Cc1ccc(C(F)(F)F)cc1Nc1nc(C(=O)NS(=O)(=O)N2CCOC(C)CC2)co1 (racemic)", "System Under Test": "NLRP3 inflammasome (Homo sapiens (Human), UniProt Q96P20)", "IC50": "18 nM"}
{"Molecule": "COC1COCCN(S(=O)(=O)NC(=O)c2coc(Nc3cc(C(C)C)ccc3C)n2)C1 (racemic)", "System Under Test": "NLRP3 inflammasome (Homo sapiens (Human), UniProt Q96P20)", "IC50": "37 nM"}
{"Molecule": "COC1COCCN(S(=O)(=O)NC(=O)c2coc(Nc3cc(C(F)(F)F)c(F)cc3C)n2)C1 (racemic)", "System Under Test": "NLRP3 inflammasome (Homo sapiens (Human), UniProt Q96P20)", "IC50": "51 nM"}
{"Molecule": "Cc1ccc(C(F)(F)F)cc1Nc1nc(C(=O)NS(=O)(=O)N2CCOCC2C)co1 (racemic)", "System Under Test": "NLRP3 inflammasome (Homo sapiens (Human), UniProt Q96P20)", "IC50": "30 nM"}

* * *

- System Under Test: NLRP3 inflammasome (Homo sapiens (Human), UniProt Q96P20)
- Assay Summary: Evaluation of NLRP3 inflammasome inhibitory activity (inhibition of IL-1β production in THP1-Null cells, LPS/Nigericin)
- Study Conditions: inhibition of IL-1β production in THP1-Null cells
Quick rule for you: IC50 under 100 nM gets Met, anything else gets Not met.

{"Molecule": "Cc1ccnc(N2CCCN(S(=O)(=O)NC(=O)c3coc(Nc4cc(C(F)(F)F)ccc4C)n3)CC2)n1", "Assigned Label": "Met"}
{"Molecule": "Cc1ccc(C(F)(F)F)cc1Nc1nc(C(=O)NS(=O)(=O)N2CCOC(C(=O)N(C)C)CC2)co1 (stereo not shown)", "Assigned Label": "Met"}
{"Molecule": "CCOCC1CCN(S(=O)(=O)NC(=O)c2coc(Nc3cc(C(F)F)ccc3C)n2)CCO1 (stereo not shown)", "Assigned Label": "Met"}
{"Molecule": "Cc1ccc(C(F)(F)F)cc1Nc1nc(C(=O)NS(=O)(=O)NC2CCOCC2)co1", "Assigned Label": "Not met"}
{"Molecule": "Cc1ccc(C(F)(F)F)cc1Nc1nc(C(=O)NS(=O)(=O)N2CCOC(CO)CC2)co1 (stereo not shown)", "Assigned Label": "Met"}
{"Molecule": "CC(C)c1nn(C(C)C)cc1Nc1nc(C(=O)NS(=O)(=O)N2CCCN(S(=O)(=O)CC(C)(C)C)CC2)co1", "Assigned Label": "Not met"}
{"Molecule": "CCCS(=O)(=O)N1CCCN(S(=O)(=O)NC(=O)c2coc(Nc3cc(C(F)(F)F)ccc3C)n2)CC1", "Assigned Label": "Met"}
{"Molecule": "Cc1ccc2c(c1Nc1nc(C(=O)NS(=O)(=O)N3CCOCC3)cs1)CCC2", "Assigned Label": "Not met"}
{"Molecule": "CCCCS(=O)(=O)N1CCCN(S(=O)(=O)NC(=O)c2coc(Nc3cc(C)ccc3C)n2)CC1", "Assigned Label": "Met"}
{"Molecule": "Cc1ccc(C(F)(F)F)cc1Nc1nc(C(=O)NS(=O)(=O)N2CCCn3nccc3C2)co1", "Assigned Label": "Met"}
{"Molecule": "Cc1ccc(C(C)C)cc1Nc1nc(C(=O)NS(=O)(=O)N2CCOC(COC(F)F)CC2)co1 (stereo not shown)", "Assigned Label": "Met"}
{"Molecule": "CCCN1CCCN(S(=O)(=O)NC(=O)c2coc(Nc3cc(C(F)(F)F)ccc3C)n2)CC1", "Assigned Label": "Not met"}
{"Molecule": "Cc1ccc(C(F)(F)F)cc1Nc1nc(C(=O)NS(=O)(=O)NC(C)C)co1", "Assigned Label": "Not met"}
{"Molecule": "CCCC(=O)N1CCCN(S(=O)(=O)NC(=O)c2coc(Nc3cc(C(F)(F)F)ccc3C)n2)CC1", "Assigned Label": "Met"}
{"Molecule": "COCC1CCN(S(=O)(=O)NC(=O)c2coc(Nc3cc(C)ccc3C)n2)CCO1 (stereo not shown)", "Assigned Label": "Not met"}
{"Molecule": "Cc1ccc(C(F)(F)F)cc1Nc1nc(C(=O)NS(=O)(=O)N2CCCN(c3cnccn3)CC2)co1", "Assigned Label": "Met"}
{"Molecule": "CCOCC1CCN(S(=O)(=O)NC(=O)c2coc(Nc3cc(C(C)C)ccc3C)n2)CCO1 (stereo not shown)", "Assigned Label": "Met"}
{"Molecule": "Cc1ccc(C(F)(F)F)cc1Nc1nc(C(=O)NS(=O)(=O)N2CCCNCC2)co1", "Assigned Label": "Not met"}
{"Molecule": "CC(C)c1cn(C(C)C)nc1Nc1nc(C(=O)NS(=O)(=O)N(C)C(C)C)co1", "Assigned Label": "Met"}
{"Molecule": "Cc1ccc(C(C)C)cc1Nc1nc(C(=O)NS(=O)(=O)N(C)C)cs1", "Assigned Label": "Met"}
{"Molecule": "CC(C)n1cc(Nc2nc(C(=O)NS(=O)(=O)N3CCCOCC3)co2)c(C2CCC2)n1", "Assigned Label": "Not met"}
{"Molecule": "Cc1cc(F)c(C(F)(F)F)cc1Nc1nc(C(=O)NS(=O)(=O)N2CCCOCC2)co1", "Assigned Label": "Met"}
{"Molecule": "CCOCC1CCN(S(=O)(=O)NC(=O)c2coc(Nc3cc(C(F)(F)F)ccc3C)n2)CCO1 (stereo not shown)", "Assigned Label": "Met"}
{"Molecule": "Cc1ccc(C(F)(F)F)cc1Nc1nc(C(=O)NS(=O)(=O)N2CCCC(c3ncccn3)[C@@H](C)C2)co1 (stereo partly shown)", "Assigned Label": "Not met"}
{"Molecule": "CCCS(=O)(=O)N1CCCN(S(=O)(=O)NC(=O)c2coc(Nc3cccc4ocnc34)n2)CC1", "Assigned Label": "Not met"}
{"Molecule": "CCCS(=O)(=O)N1CCCN(S(=O)(=O)NC(=O)c2coc(Nc3cc(C)ccc3C)n2)CC1", "Assigned Label": "Met"}
{"Molecule": "CC(C)c1ccc2c(c1Nc1nc(C(=O)NS(=O)(=O)N(C)C)co1)CCC2", "Assigned Label": "Not met"}
{"Molecule": "Cc1ccc(C(F)(F)F)cc1Nc1nc(C(=O)NS(=O)(=O)N2CCOC(COC(F)F)CC2)co1 (stereo not shown)", "Assigned Label": "Met"}
{"Molecule": "Cc1ncc(C(F)(F)F)cc1Nc1nc(C(=O)NS(=O)(=O)N2CCCOCC2)co1", "Assigned Label": "Not met"}
{"Molecule": "CC(C)c1ccc(C(F)F)cc1Nc1nc(C(=O)NS(=O)(=O)N2CCCOCC2)co1", "Assigned Label": "Met"}

* * *

- System Under Test: UniProt:Q96P20
- Assay Summary: Evaluation of NLRP3 inflammasome inhibitory activity (inhibition of IL-1β production in THP1-Null cells, LPS/Nigericin)
- Study Conditions: IL-1β production in THP1-Null cells, PMA/LPS primed, Nigericin 7.5 μmol/L
Catalogue of log10(IC50) values
Assay Endpoint: log10(IC50) (log10 of the value in nM)

{"Molecule": "Cc1cc(Nc2nc(C(=O)NS(=O)(=O)N3CCOC(COC(C)C)CC3)co2)c(C)cc1F (centres unmarked) [Example 3-003]", "log10(IC50)": 1.32}
{"Molecule": "CN(C)S(=O)(=O)NC(=O)c1cnc(Nc2c3c(c(Cl)c4c2CCC4)CCC3)o1 [Example 14]", "log10(IC50)": 1.99}
{"Molecule": "CC(C)NS(=O)(=O)NC(=O)c1cnc(Nc2c3c(cc4c2CCC4)CCC3)o1 [Example 7]", "log10(IC50)": 2.30}
{"Molecule": "CN1CCN(S(=O)(=O)NC(=O)c2coc(Nc3c4c(c(F)c5c3CCC5)CCC4)n2)CC1=O [Example 64]", "log10(IC50)": 3.76}
{"Molecule": "O=C(NS(=O)(=O)N1CCCC1)c1coc(Nc2c3c(c(Cl)c4c2CCC4)CCC3)n1 [Example 34]", "log10(IC50)": 1.68}
